tested on: non-expressing oocytes; assay: cells; format: cell-based, Xenopus laevis; conditions: Xenopus laevis, Oocyte; total [3H]CQ transport; [test solute] = 1 mM; mean ± SEM; SEM; read-out: Uptake of [3H]CQ (% PfCRTDd2 control), cis-inhibition, non-expressing oocytes
Parameter: inhibition at 1000 µM (%)
Report only the number, with the unit % understood.

Recorded inhibition at 1000 µM, per entry:
NC(=O)CC[C@H](N)C(=O)O; 2.7
CC(C)C[C@H](N)C(=O)O; 2.8
N[C@@H](CCC(=O)O)C(=O)O; 2.7

Reported inhibition at 1000 µM for non-expressing oocytes, given N[C@@H](CS)C(=O)O ? 3.4

Reported inhibition at 1000 µM for non-expressing oocytes, given N=C(N)NCCC[C@H](N)C(=O)O ? 2.7

Reported inhibition at 1000 µM for non-expressing oocytes, given N[C@@H](Cc1ccccc1)C(=O)O ? 2.7

Reported inhibition at 1000 µM for non-expressing oocytes, given N[C@@H](CO)C(=O)O ? 3.6

Reported inhibition at 1000 µM for non-expressing oocytes, given CC(C)[C@H](N)C(=O)O ? 2.5
